Tested on: influenza virus A/PR/8/34 (H1N1)
Measurement description: in vitro
Experimental parameters: Pre-Treatment Assay SI (selective index, CC50/EC50)
Observed property: selectivity ratio
Form field (numeric): enter value without unit.

Input: GET /values?readout=selectivity ratio&item= O=c1c(O)c(-c2ccc(O)cc2)oc2cc(O)cc(O)c12 [J10610, Kaempferol]
Output: 13.3

###

Test system: influenza virus A/PR/8/34 (H1N1)
Measurement description: in vitro
Experimental parameters: Simultaneous Treatment Assay SI (selective index, CC50/EC50), simultaneous treatment, MDCK, H1N1
So I've got a bunch of molecules here, and I need their selectivity ratio at 24 h values.
Form field (numeric): enter value without unit.

Input: GET /values?readout=selectivity ratio at 24 h&item= Oc1cc(O)cc(/C=C/c2ccccc2)c1
Output: 3.46

Input: One more molecule: CCCOC(=O)c1cc(O)c(O)c(O)c1 [J25986, Propyl gallate]
Output: 14.1

Input: One more molecule: O=C(O[C@@H]1O[C@@H]2COC(=O)c3cc(O)c(O)c(O)c3-c3c(cc(O)c(O)c3O)C(=O)O[C@H]([C@H]1O)[C@@H]2O)c1cc(O)c(O)c(O)c1
Output: 76.8

Input: One more molecule: C/C=C/C(=O)c1c(O)c2c(c3c(-c4ccccc4)cc(=O)oc13)OC(C)(C)C=C2
Output: 4.78

###

Measurement description: in vitro
Experimental parameters: dog
So I've got a bunch of compounds here, and I need their CC50 at 72 h values.
Write the value in µg/mL as a bare number.

Input: GET /values?readout=CC50 at 72 h&item= C/C=C/C(=O)c1c(O)c2c(c3c(-c4ccccc4)cc(=O)oc13)OC(C)(C)C=C2 [J10857]
Output: 77.7

Input: One more compound: Oc1cc(O)cc(/C=C/c2ccccc2)c1 [J14848, Pinosylvin]
Output: 18.3

Input: One more compound: O=C(O[C@@H]1O[C@@H]2COC(=O)c3cc(O)c(O)c(O)c3-c3c(cc(O)c(O)c3O)C(=O)O[C@H]([C@H]1O)[C@@H]2O)c1cc(O)c(O)c(O)c1 [J12098, Corilagin]
Output: 154

Input: One more compound: COc1cc(/C=C/c2cc(O)cc(O)c2)ccc1O [J14528, Isorhapontigenin]
Output: 83.4

Input: One more compound: O=c1cc(-c2ccccc2)oc2c(O)c(O)cc(O)c12 [J21548, Norwogonin]
Output: 91.8

###

Measurement description: Cytotoxicity assay in MDCK cells (MTT, 72 h)
Experimental parameters: dog, MDCK cells
So I've got a bunch of molecules here, and I need their CC50 at 72 h values.
Give the value; after it, write the unit.

Input: GET /values?readout=CC50 at 72 h&item= O=c1c(O)c(-c2ccc(O)cc2)oc2cc(O)cc(O)c12
Output: 68.5 µg/mL

Input: One more molecule: O=c1cc(-c2ccc(O)c(O)c2)oc2cc(O)cc(O)c12
Output: 24.9 µg/mL

Input: One more molecule: CCCOC(=O)c1cc(O)c(O)c(O)c1 [J25986, Propyl gallate]
Output: 182 µg/mL

###

System: influenza virus A/PR/8/34 (H1N1)
Measurement description: in vitro
Experimental parameters: Post-Treatment Assay SI (selective index, CC50/EC50), post-treatment, MDCK, H1N1
Quick rule for you: selectivity ratio at 24 h at 4 or higher means Condition met, lower means Condition not met.

Input: Please indicate if the recorded selectivity ratio at 24 h for Oc1cc(O)cc(/C=C/c2ccccc2)c1 [J14848, Pinosylvin] meets or exceeds 4.
Output: Condition not met

Input: One more compound: O=c1cc(-c2ccc(O)c(O)c2)oc2cc(O)cc(O)c12 [J20725, Luteolin]
Output: Condition met

Input: One more compound: O=C(Oc1cc(O)c2c(c1)O[C@H](c1cc(O)c(O)c(O)c1)[C@@H](O)C2)c1cc(O)c(O)c(O)c1 [J10688, Clypearin]
Output: Condition met

Input: One more compound: O=C(O[C@@H]1O[C@@H]2COC(=O)c3cc(O)c(O)c(O)c3-c3c(cc(O)c(O)c3O)C(=O)O[C@H]([C@H]1O)[C@@H]2O)c1cc(O)c(O)c(O)c1 [J12098, Corilagin]
Output: Condition met

Input: One more compound: C/C=C/C(=O)c1c(O)c2c(c3c(-c4ccccc4)cc(=O)oc13)OC(C)(C)C=C2 [J10857]
Output: Condition met

Input: One more compound: CCCOC(=O)c1cc(O)c(O)c(O)c1 [J25986, Propyl gallate]
Output: Condition met

###

Measurement description: Cytotoxicity assay in MDCK cells (MTT, 72 h)
Experimental parameters: dog
So I've got a bunch of molecules here, and I need their CC50 at 72 h values.

Input: GET /values?readout=CC50 at 72 h&item= COC(=O)c1cc(O)c(O)c(O)c1 [Methyl gallate]
Output: 69.5 µg/mL

Input: One more molecule: O=C(O[C@@H]1Cc2c(O)cc(O)cc2O[C@@H]1c1cc(O)c(O)c(O)c1)c1cc(O)c(O)c(O)c1 [J14080, Epigallocatechin gallate]
Output: 71.1 µg/mL

Input: One more molecule: Cc1c([N+](=O)[O-])c(O)c([N+](=O)[O-])c2oc(=O)c(C(=O)Nc3cccc(C(=O)O)c3)cc12
Output: 175 µg/mL

Input: One more molecule: NC(=O)c1ncn([C@@H]2O[C@H](CO)[C@@H](O)[C@H]2O)n1 [Ribavirin, reference compound]
Output: > 200 µg/mL

Input: One more molecule: O=c1c(-c2ccc(O)cc2)coc2cc(O)cc(O)c12
Output: 75.6 µg/mL

###

Test system: MDCK cells
Measurement description: Cytotoxicity assay in MDCK cells (MTT, 72 h)
Experimental parameters: MDCK cells, 72 h, MTT; more than 90% cells viable
So I've got a bunch of compounds here, and I need their CC0 (maximal non-cytotoxic concentration) values.
Write the value in µg/mL as a bare number.

Input: Query for MDCK cells: what CC0 (maximal non-cytotoxic concentration) does the record show for O=c1c(-c2ccc(O)cc2)coc2cc(O)cc(O)c12 ?
Output: 30

Input: One more compound: O=c1c(O)c(-c2ccc(O)cc2)oc2cc(O)cc(O)c12
Output: 30

Input: One more compound: O=c1cc(-c2ccc(O)c(O)c2)oc2cc(O)cc(O)c12
Output: 10

Input: One more compound: Cc1c([N+](=O)[O-])c(O)c([N+](=O)[O-])c2oc(=O)c(C(=O)Nc3cccc(C(=O)O)c3)cc12
Output: 30

Input: One more compound: CCCOC(=O)c1cc(O)c(O)c(O)c1 [J25986, Propyl gallate]
Output: 30

Input: One more compound: O=C(O[C@@H]1Cc2c(O)cc(O)cc2O[C@@H]1c1cc(O)c(O)c(O)c1)c1cc(O)c(O)c(O)c1 [J14080, Epigallocatechin gallate]
Output: 30

###

Target entity: recombinant human CLK1 (Homo sapiens, UniProt P49759)
Construct: The primer of human full length CLK1 gene was as follows; made in house; host or cells: Sf9 insect cells (baculovirus, pFastBac1)
Sequence (P49759 whole entry): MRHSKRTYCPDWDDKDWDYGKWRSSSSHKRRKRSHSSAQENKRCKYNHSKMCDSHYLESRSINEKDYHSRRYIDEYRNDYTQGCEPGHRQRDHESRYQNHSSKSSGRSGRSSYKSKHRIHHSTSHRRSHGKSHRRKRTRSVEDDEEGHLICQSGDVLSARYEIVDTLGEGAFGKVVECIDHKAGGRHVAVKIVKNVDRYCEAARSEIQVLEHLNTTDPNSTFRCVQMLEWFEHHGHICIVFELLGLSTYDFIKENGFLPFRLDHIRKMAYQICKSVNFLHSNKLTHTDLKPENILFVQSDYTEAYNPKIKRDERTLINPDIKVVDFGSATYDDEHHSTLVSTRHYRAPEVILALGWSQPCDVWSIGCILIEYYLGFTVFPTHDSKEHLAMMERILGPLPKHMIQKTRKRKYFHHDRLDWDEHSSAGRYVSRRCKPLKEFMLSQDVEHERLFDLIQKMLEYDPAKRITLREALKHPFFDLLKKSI
Measurement description: CLK1 inhibitory assay (Kinase-Glo luminescent kinase assay, MBP substrate)
Type: biochemical
Experimental parameters: IC50, Kinase-Glo assay
Observed property: IC50

Input: GET /values?readout=IC50&item= COC(=O)c1cc(O)c(O)c(O)c1 [Methyl gallate]
Output: < 272 µM

Input: One more molecule: COc1cc(/C=C/c2cc(O)cc(O)c2)ccc1O
Output: < 194 µM

Input: One more molecule: Cc1c([N+](=O)[O-])c(O)c([N+](=O)[O-])c2oc(=O)c(C(=O)Nc3cccc(C(=O)O)c3)cc12
Output: < 116 µM

Input: One more molecule: O=c1cc(-c2ccccc2)oc2c(O)c(O)cc(O)c12
Output: < 185 µM

Input: One more molecule: O=c1c(-c2ccc(O)cc2)coc2cc(O)cc(O)c12
Output: < 185 µM

Input: One more molecule: O=C(O[C@@H]1Cc2c(O)cc(O)cc2O[C@@H]1c1cc(O)c(O)c(O)c1)c1cc(O)c(O)c(O)c1 [J14080, Epigallocatechin gallate]
Output: < 109 µM

###

Test system: influenza virus A/PR/8/34 (H1N1)
Measurement description: in vitro
Experimental parameters: Simultaneous Treatment Assay SI (selective index, CC50/EC50)
Observed property: selectivity ratio
Form field (numeric): enter value without unit.

Input: GET /values?readout=selectivity ratio&item= O=c1c(O)c(-c2ccc(O)cc2)oc2cc(O)cc(O)c12 [J10610, Kaempferol]
Output: 5.55

###

Target entity: recombinant human CLK1 (Homo sapiens)
Construct: The primer of human full length CLK1 gene was as follows; made in house; host or cells: Sf9 insect cells (baculovirus, pFastBac1)
Measurement description: CLK1 inhibitory assay (Kinase-Glo luminescent kinase assay, MBP substrate)
Type: biochemical
Experimental parameters: Kinase-Glo assay; read-out: IC50 (converted)
Experimental: The optimal conditions were dependent on the largest change in luminescence when comparing kinase reaction wells with control wells. The kinase assay in this study utilized appropriate concentration of recombinant purified protein CLK1 in the presence of MBP as the substrate, MgCl2, MnCl2, ATP in kinase buffer (10 mM Tris, 1 mM EGTA, 100 μM sodium orthovanadate, 10 μM p-nitrophenyl phosphate (PNP), pH7.4) in a reaction volume of 20 μL. […] Z′ factor values was calculated as described. […]
So I've got a bunch of molecules here, and I need their IC50 values.

Input: GET /values?readout=IC50&item= CCCOC(=O)c1cc(O)c(O)c(O)c1 [J25986, Propyl gallate]
Output: < 236 µM

Input: One more molecule: C/C=C/C(=O)c1c(O)c2c(c3c(-c4ccccc4)cc(=O)oc13)OC(C)(C)C=C2 [J10857]
Output: < 129 µM

Input: One more molecule: O=c1cc(-c2ccc(O)c(O)c2)oc2cc(O)cc(O)c12 [J20725, Luteolin]
Output: < 175 µM

Input: One more molecule: O=c1c(O)c(-c2ccc(O)cc2)oc2cc(O)cc(O)c12 [J10610, Kaempferol]
Output: < 175 µM

FYI, the data here is from paper PMC6332427.
